- Target Desc: T1, Ax1 protein, extracellular domain (human, UniProt P30530 26-451)
- T1 construct: extracellular domain; also called Axl; Ark
- T1 sequence (looked up): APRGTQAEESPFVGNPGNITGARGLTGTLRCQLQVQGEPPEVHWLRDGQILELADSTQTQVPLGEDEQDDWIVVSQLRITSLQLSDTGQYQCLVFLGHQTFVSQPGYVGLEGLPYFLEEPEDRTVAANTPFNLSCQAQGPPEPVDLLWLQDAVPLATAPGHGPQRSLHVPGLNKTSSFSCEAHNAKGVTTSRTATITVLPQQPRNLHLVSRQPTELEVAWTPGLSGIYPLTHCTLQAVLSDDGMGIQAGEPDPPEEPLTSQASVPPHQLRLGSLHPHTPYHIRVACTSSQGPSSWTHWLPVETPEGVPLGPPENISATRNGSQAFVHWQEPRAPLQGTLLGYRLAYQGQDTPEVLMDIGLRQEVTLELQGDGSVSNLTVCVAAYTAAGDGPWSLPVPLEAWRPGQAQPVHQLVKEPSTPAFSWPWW
- Assay Protocol: ELISA, mutant diluted 1:9
Below, each entry is listed with its recorded Affinity ELISA CPE mutant ratio (1:9, pH 6.0/7.4).
Assay Endpoint: Affinity ELISA CPE mutant ratio (1:9, pH 6.0/7.4)

- Binder: "HC-W110N (antibody, V domains shown) VH: EVQLVQSGAEVKKPGATVKISCKVSGYSFTGHTMNWIRQPPGKGLEWIGLIKPSNGGTSYNQKFKGRVTISADKSISTAYLQWSSLKASDTAMYYCAHGHYESYFAMDYNGQGTLVTVSS VL: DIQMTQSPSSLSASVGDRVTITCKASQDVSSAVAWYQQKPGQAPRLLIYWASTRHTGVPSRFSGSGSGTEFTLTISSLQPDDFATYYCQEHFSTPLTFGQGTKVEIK"
  Reported Result: 0.8
- Binder: "HC-A106D (antibody, V domains shown, CPE single point mutant) VH: EVQLVQSGAEVKKPGATVKISCKVSGYSFTGHTMNWIRQPPGKGLEWIGLIKPSNGGTSYNQKFKGRVTISADKSISTAYLQWSSLKASDTAMYYCAHGHYESYFDMDYWGQGTLVTVSS VL: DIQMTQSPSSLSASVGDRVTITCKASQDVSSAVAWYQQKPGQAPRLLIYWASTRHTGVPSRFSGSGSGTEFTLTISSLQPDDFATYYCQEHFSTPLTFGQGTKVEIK"
  Reported Result: 2.51
- Binder: "LC-A034D (antibody, V domains shown, CPE single point mutant) VH: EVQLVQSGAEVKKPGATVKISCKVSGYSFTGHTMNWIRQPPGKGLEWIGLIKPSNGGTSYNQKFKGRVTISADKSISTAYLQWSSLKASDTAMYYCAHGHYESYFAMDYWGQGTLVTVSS VL: DIQMTQSPSSLSASVGDRVTITCKASQDVSSAVDWYQQKPGQAPRLLIYWASTRHTGVPSRFSGSGSGTEFTLTISSLQPDDFATYYCQEHFSTPLTFGQGTKVEIK"
  Reported Result: 2.6
- Binder: "HC-B102G (antibody, V domains shown, CPE single point mutant; printed B102, read as E102 (other rows print HC-E102x)) VH: EVQLVQSGAEVKKPGATVKISCKVSGYSFTGHTMNWIRQPPGKGLEWIGLIKPSNGGTSYNQKFKGRVTISADKSISTAYLQWSSLKASDTAMYYCAHGHYGSYFAMDYWGQGTLVTVSS VL: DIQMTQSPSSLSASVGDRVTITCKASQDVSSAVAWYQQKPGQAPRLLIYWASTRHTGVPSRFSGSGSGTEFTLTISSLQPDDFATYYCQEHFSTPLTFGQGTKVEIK"
  Reported Result: 2.68
- Binder: "HC-P053N (antibody, V domains shown, CPE single point mutant) VH: EVQLVQSGAEVKKPGATVKISCKVSGYSFTGHTMNWIRQPPGKGLEWIGLIKNSNGGTSYNQKFKGRVTISADKSISTAYLQWSSLKASDTAMYYCAHGHYESYFAMDYWGQGTLVTVSS VL: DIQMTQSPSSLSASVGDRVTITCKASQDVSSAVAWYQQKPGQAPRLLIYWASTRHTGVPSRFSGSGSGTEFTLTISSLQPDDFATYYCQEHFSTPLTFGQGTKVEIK"
  Reported Result: 1.89

Where do the numbers come from? From patent US20240199746A1.
